biological target: human NaV 1.8 (Homo sapiens); assay: E-VIPR assay for detecting and measuring NaV inhibition properties; assay type: cell-based; details: E-VIPR assay conducted in the presence of human serum; HEK cells expressing truncated human NaV 1.8; read-out: IC50
Sequence (Q9Y5Y9 whole entry, looked up, the tested form may be a part): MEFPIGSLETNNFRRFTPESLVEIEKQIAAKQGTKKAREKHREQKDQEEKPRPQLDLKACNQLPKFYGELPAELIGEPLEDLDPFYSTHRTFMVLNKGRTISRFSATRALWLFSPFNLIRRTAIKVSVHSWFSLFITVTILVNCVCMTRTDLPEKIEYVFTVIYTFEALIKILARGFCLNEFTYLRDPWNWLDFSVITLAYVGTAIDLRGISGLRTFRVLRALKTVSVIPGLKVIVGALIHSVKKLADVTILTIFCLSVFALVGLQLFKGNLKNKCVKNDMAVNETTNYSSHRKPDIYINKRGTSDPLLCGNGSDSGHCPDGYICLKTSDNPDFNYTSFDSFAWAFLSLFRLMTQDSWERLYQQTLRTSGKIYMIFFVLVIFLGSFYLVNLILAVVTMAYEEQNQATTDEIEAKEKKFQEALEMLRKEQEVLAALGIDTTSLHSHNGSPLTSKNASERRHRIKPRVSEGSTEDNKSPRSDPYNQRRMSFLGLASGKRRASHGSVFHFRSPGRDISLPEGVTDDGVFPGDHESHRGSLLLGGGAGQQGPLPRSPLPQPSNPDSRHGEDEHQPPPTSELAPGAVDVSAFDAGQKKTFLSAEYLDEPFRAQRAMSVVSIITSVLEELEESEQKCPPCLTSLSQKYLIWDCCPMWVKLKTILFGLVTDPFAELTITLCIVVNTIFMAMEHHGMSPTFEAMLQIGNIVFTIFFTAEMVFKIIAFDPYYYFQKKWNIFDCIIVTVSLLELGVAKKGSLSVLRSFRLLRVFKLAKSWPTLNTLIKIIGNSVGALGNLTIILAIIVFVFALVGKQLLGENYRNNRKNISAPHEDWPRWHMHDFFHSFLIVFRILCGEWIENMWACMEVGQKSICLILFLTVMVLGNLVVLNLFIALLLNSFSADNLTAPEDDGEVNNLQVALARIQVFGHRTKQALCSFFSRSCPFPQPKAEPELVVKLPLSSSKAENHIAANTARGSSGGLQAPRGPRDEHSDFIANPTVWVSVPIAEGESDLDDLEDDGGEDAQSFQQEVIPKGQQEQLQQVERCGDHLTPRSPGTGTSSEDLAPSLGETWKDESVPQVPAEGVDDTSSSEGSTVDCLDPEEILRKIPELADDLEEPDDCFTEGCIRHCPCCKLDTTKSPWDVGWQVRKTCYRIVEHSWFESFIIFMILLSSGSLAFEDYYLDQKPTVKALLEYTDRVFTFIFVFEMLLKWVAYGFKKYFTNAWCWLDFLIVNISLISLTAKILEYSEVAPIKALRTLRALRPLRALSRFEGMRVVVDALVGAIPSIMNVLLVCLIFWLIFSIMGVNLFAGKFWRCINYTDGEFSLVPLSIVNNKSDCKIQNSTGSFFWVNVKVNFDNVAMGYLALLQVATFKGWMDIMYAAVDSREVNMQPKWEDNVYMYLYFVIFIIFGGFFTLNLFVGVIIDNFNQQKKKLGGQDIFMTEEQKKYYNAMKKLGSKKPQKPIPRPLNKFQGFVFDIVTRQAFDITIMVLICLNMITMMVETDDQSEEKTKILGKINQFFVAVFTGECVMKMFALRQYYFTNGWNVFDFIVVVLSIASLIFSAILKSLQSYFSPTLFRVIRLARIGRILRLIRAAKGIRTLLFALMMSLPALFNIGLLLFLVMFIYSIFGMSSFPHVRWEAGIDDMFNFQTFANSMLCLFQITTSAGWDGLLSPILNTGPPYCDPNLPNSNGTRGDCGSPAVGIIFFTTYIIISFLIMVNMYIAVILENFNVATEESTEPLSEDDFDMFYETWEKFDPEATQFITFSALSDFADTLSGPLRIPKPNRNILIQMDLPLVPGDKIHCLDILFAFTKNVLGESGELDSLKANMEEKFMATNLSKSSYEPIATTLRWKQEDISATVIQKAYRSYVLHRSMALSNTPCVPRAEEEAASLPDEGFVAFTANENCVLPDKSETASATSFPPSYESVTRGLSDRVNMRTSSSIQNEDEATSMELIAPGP
Experimental Readout: IC50

>>> measured_result("CC(C)Oc1ccc(Oc2cc(C(F)(F)F)ccc2C(=O)Nc2ccnc(C(N)=O)c2)cc1Cl")
"> 3 µM"
>>> measured_result("[2H]C([2H])([2H])Oc1cc(OC(F)(F)F)ccc1Oc1cc2c(cc1C(=O)Nc1ccc(C(N)=O)nc1)OCCO2")
"> 3 µM"
>>> measured_result("[2H]C([2H])([2H])Oc1cc(OC(F)(F)F)ccc1Oc1cc(-c2ccccc2C(N)=O)cc(F)c1C(=O)Nc1ccnc(C(N)=O)c1")
"> 3 µM"

The origin of these recorded values is patent US12441703B2.
